Origin of measurements: paper PMC13222238

system: pooled human fecal slurry; assay: in vitro; conditions: human, 500 µM
measured_parameter: apparent first-order rate constant (k) (h⁻¹)

Example entries and their recorded answers appear below.
>>> readout_value("CC(=O)OCC(=O)NCCCOc1cccc(CN2CCCCC2)c1 [Roxatidine-acetate, roxatidine-acetate]")
1.16
>>> readout_value("O=C(N[C@H](CO)[C@H](O)c1ccc([N+](=O)[O-])cc1)C(Cl)Cl")
0.45

1. O=C(O)c1cc(/N=N/c2ccc(S(=O)(=O)Nc3ccccn3)cc2)ccc1O
2. CCOC(=O)C1=C(C)NC(C)=C(C(=O)OC)C1c1cccc([N+](=O)[O-])c1 (centres unmarked)
3. CC1=C(CC(=O)O)c2cc(F)ccc2/C1=C\c1ccc([S+](C)[O-])cc1 (centres unmarked)
Problem: Put these in order: smallest apparent first-order rate constant (k) first, largest last. Thanks in advance for listing the labels in the requested order.
Result: 3, 2, 1

* * *

Test system: sterile-filtered fecal exoenzyme fraction
Assay: Xenobiotic depletion in the sterile-filtered fecal exoenzyme fraction
Assay type: in vitro ADME, human
Conditions: 500 µM test compound, anaerobic, 37°C, 24 h, three donor pools
Method: To further purify the extracellular enzyme (exoenzyme) fraction, the supernatant was centrifuged at 18,000 × g for 3 min at 4 °C. […] To enable parameter-based comparison of compound conversion across incubation matrices, apparent first-order kinetic parameters were calculated from precursor compound depletion data. Only quantifiable time points were considered. […]
measured_parameter: apparent first-order rate constant (k) (h⁻¹)

// solved cases for apparent first-order rate constant (k) follow
>>> readout_value("O=C(N[C@H](CO)[C@H](O)c1ccc([N+](=O)[O-])cc1)C(Cl)Cl")
0.003
>>> readout_value("O=C(O)c1cc(/N=N/c2ccc(S(=O)(=O)Nc3ccccn3)cc2)ccc1O")
0.003
>>> readout_value("CC(=O)Nc1ccc(OC(C)=O)cc1 [4-Acetoxyacetanilide, 4-acetoxyacetanilide]")
13.46

1. CCOC(=O)C1=C(C)NC(C)=C(C(=O)OC)C1c1cccc([N+](=O)[O-])c1 (stereo not drawn)
2. CC1=C(CC(=O)O)c2cc(F)ccc2/C1=C\c1ccc([S+](C)[O-])cc1 (stereo not drawn)
Problem: // which entry has the larger apparent first-order rate constant (k) value, 1 or 2 ? Respond with the label that goes with your answer.
Result: 2
(2: 0.003 h⁻¹, 1: 0.002 h⁻¹)
